Data credit: ChEMBL document CHEMBL1201862

system: ACHN; test: NCI tumour cell line growth inhibition, 48 h
The source made the active and inactive calls. Cut-off read from the data, not from the text of the source: active = GI50 up to about 1.1 µM and inactive = higher.
# GI50 per record follows

# molecule, GI50
measured = [
    ("O=C(Nc1cccc2ccccc12)c1cc2ccccc2oc1=O", "24.3 µM (inactive)"),
]

Q: // returns reported GI50 for input COc1ccc(/C=C/C(=O)CCN2CCN(CCC(=O)/C=C/c3ccc(OC)cc3)CC2)cc1
Ans: 14.2 µM (inactive)

Q: Entry CN1C(=O)C(CC(=O)O)NC1=S (stereo unspecified) please
Ans: > 100 µM (inactive)

Q: Entry O=C1NC(=S)NC(=O)C1=Cc1ccc([N+](=O)[O-])o1 please
Ans: 18.4 µM (inactive)

Q: Entry CSc1ccc(/C=C/C(=O)c2nc3ccccc3[nH]2)cc1 please
Ans: 18.9 µM (inactive)

Q: Entry O=C(COC(=O)c1cccc2c(=O)c3ccccc3[nH]c12)Nc1ccc(S(=O)(=O)Nc2ncccn2)cc1 please
Ans: 36.8 µM (inactive)
